Test system: Oryza sativa, (L.) Tebonnet
METHOD DESCRIPTION: Rice tolerance to post-transplant applications under flooded paddy conditions (Example 187), ORYSAT (Rice, Tebonnet)
CONDITIONS USED: 0.0313 kg/ha, rated three to four weeks after treatment
MEASUREMENT NAME: herbicidal effect rating, ORYSAT (rice tolerance)

Looking up CCc1nsc2ccc(-n3c(=O)cc(C(F)(F)F)n(C)c3=O)cc12 , I see its herbicidal effect rating, ORYSAT (rice tolerance) listed as 7.0

Looking up CCc1ccc(OC(C)C(=O)OC)c(-c2nsc3ccc(-n4c(=O)cc(C(F)(F)F)n(C)c4=O)cc23)c1 (stereo not shown) , I see its herbicidal effect rating, ORYSAT (rice tolerance) listed as 3.0

Looking up Cc1noc2cc(F)c(-n3c(=O)cc(C(F)(F)F)n(C)c3=O)cc12 , I see its herbicidal effect rating, ORYSAT (rice tolerance) listed as 5.5

Looking up Cc1ccc(OCC(=O)NS(C)(=O)=O)c(-c2nsc3ccc(-n4c(=O)cc(C(F)(F)F)n(C)c4=O)cc23)c1 , I see its herbicidal effect rating, ORYSAT (rice tolerance) listed as 3.0

Looking up COC(=O)COc1ccc(C)cc1-c1nsc2ccc(-n3c(=O)cc(C(F)(F)F)n(C)c3=O)cc12 , I see its herbicidal effect rating, ORYSAT (rice tolerance) listed as 2.0

Looking up Cn1c(C(F)(F)F)cc(=O)n(-c2ccc3snc(Cl)c3c2)c1=O , I see its herbicidal effect rating, ORYSAT (rice tolerance) listed as 0.0

Looking up Cc1ccc(OCC(=O)N(C(C)C)C(C)C)c(-c2nsc3ccc(-n4c(=O)cc(C(F)(F)F)n(C)c4=O)cc23)c1 , I see its herbicidal effect rating, ORYSAT (rice tolerance) listed as 0.0

Looking up CCN(CC)C(=O)COc1ccc(C)cc1-c1nsc2ccc(-n3c(=O)cc(C(F)(F)F)n(C)c3=O)cc12 , I see its herbicidal effect rating, ORYSAT (rice tolerance) listed as 0.0

Looking up Cc1ccc(OCC(=O)OCCN(C)C)c(-c2nsc3ccc(-n4c(=O)cc(C(F)(F)F)n(C)c4=O)cc23)c1 , I see its herbicidal effect rating, ORYSAT (rice tolerance) listed as 3.0

Looking up Cn1c(C(F)(F)F)cc(=O)n(-c2ccc3snc(COCCCl)c3c2)c1=O , I see its herbicidal effect rating, ORYSAT (rice tolerance) listed as 4.0

Looking up Cn1c(C(F)(F)F)cc(=O)n(-c2ccc3snc(Br)c3c2)c1=O , I see its herbicidal effect rating, ORYSAT (rice tolerance) listed as 1.0

Looking up COc1cc(C)c(C)c(C)c1-c1nsc2ccc(-n3c(=O)cc(C(F)(F)F)n(C)c3=O)cc12 , I see its herbicidal effect rating, ORYSAT (rice tolerance) listed as 0.0

Looking up Cc1ccc(OC(C)C#N)c(-c2nsc3ccc(-n4c(=O)cc(C(F)(F)F)n(C)c4=O)cc23)c1 (stereo not shown) , I see its herbicidal effect rating, ORYSAT (rice tolerance) listed as 2.0

Looking up Cn1c(C(F)(F)F)cc(=O)n(-c2ccc3snc(COC(=O)c4ccccc4)c3c2)c1=O , I see its herbicidal effect rating, ORYSAT (rice tolerance) listed as 3.0

Looking up COC(=O)C(C)Oc1ccc(C)cc1-c1nsc2ccc(-n3c(=S)cc(C(F)(F)F)n(C)c3=O)cc12 (stereo not shown) , I see its herbicidal effect rating, ORYSAT (rice tolerance) listed as 2.0

Looking up Cc1ccc(OCC(=O)OCC#Cc2ccccc2)c(-c2nsc3ccc(-n4c(=O)cc(C(F)(F)F)n(C)c4=O)cc23)c1 , I see its herbicidal effect rating, ORYSAT (rice tolerance) listed as 2.5

Looking up CC(C)SCc1nsc2ccc(-n3c(=O)cc(C(F)(F)F)n(C)c3=O)cc12 , I see its herbicidal effect rating, ORYSAT (rice tolerance) listed as 3.0

Looking up COc1ccc(C)cc1-c1nsc2ccc(-n3c(=O)cc(C)n(C)c3=O)cc12 , I see its herbicidal effect rating, ORYSAT (rice tolerance) listed as 2.0

Looking up COC(=O)C(C)Oc1c(C)cc(C)cc1-c1nsc2ccc(-n3c(=O)cc(C(F)(F)F)n(C)c3=O)cc12 (stereo not shown) , I see its herbicidal effect rating, ORYSAT (rice tolerance) listed as 2.0

Looking up Cc1ccc(OC(C)C)c(-c2nsc3ccc(-n4c(=O)cc(C(F)(F)F)n(C)c4=O)cc23)c1 , I see its herbicidal effect rating, ORYSAT (rice tolerance) listed as 2.0

Looking up Cc1ccc(OCC#N)c(-c2nsc3ccc(-n4c(=O)cc(C(F)(F)F)n(C)c4=O)cc23)c1 , I see its herbicidal effect rating, ORYSAT (rice tolerance) listed as 3.0

Looking up CCOCCOCc1nsc2ccc(-n3c(=O)cc(C(F)(F)F)n(C)c3=O)cc12 , I see its herbicidal effect rating, ORYSAT (rice tolerance) listed as 7.0

Looking up COc1noc2ccc(-n3c(=O)cc(C(F)(F)F)n(C)c3=O)cc12 , I see its herbicidal effect rating, ORYSAT (rice tolerance) listed as 0.0

Looking up COC(=O)C(C)Oc1ccccc1Oc1noc2ccc(-n3c(=O)cc(C(F)(F)F)n(C)c3=O)cc12 (stereo not shown) , I see its herbicidal effect rating, ORYSAT (rice tolerance) listed as 1.5

Looking up Cn1c(C(F)(F)F)cc(=O)n(-c2ccc3snc(C(Cl)Cl)c3c2)c1=O , I see its herbicidal effect rating, ORYSAT (rice tolerance) listed as 4.0

Looking up Cc1ccc(OCC(=O)OC(C)C(C)(C)C)c(-c2nsc3ccc(-n4c(=O)cc(C(F)(F)F)n(C)c4=O)cc23)c1 (stereo not shown) , I see its herbicidal effect rating, ORYSAT (rice tolerance) listed as 0.0

Looking up CSCc1nsc2ccc(-n3c(=O)cc(C(F)(F)F)n(C)c3=O)cc12 , I see its herbicidal effect rating, ORYSAT (rice tolerance) listed as 1.7

Looking up COC(=O)COc1ccc(C)cc1-c1nsc2ccc(-n3c(=O)cc(C)n(C)c3=O)cc12 , I see its herbicidal effect rating, ORYSAT (rice tolerance) listed as 0.0

Looking up C#CCNC(=O)COc1ccc(C)cc1-c1noc2ccc(-n3c(=O)cc(C(F)(F)F)n(C)c3=O)cc12 , I see its herbicidal effect rating, ORYSAT (rice tolerance) listed as 0.0

Looking up COc1ccc(C(C)C)cc1-c1nsc2ccc(-n3c(=O)cc(C(F)(F)F)n(C)c3=O)cc12 , I see its herbicidal effect rating, ORYSAT (rice tolerance) listed as 1.0

Looking up Cn1c(C(F)(F)F)cc(=O)n(-c2ccc3snc(-c4ccccc4)c3c2)c1=O , I see its herbicidal effect rating, ORYSAT (rice tolerance) listed as 4.0
